meta.source: patent EP4386000A1

Give measured EC50, killing Tregs in vitro (ADCC reporter, jurkat/CD16a/NFAT-luc) for each item. Keep answers brief.
Molecular target: T1, CD25 on CD4+CD25+ Treg cells isolated from human PBMCs (human, UniProt P01589 22-272)
T1 sequence (looked up): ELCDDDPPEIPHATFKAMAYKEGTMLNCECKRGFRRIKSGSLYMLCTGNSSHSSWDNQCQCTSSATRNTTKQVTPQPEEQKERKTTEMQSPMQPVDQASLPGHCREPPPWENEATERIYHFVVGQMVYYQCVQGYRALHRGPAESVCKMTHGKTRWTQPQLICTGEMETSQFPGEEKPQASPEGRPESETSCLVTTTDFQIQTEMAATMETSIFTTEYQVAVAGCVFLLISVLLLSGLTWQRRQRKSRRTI
Experiment: cell-based or functional assay
Answer with a number only, understood to be in µg/mL.

Form field: reported EC50, killing Tregs in vitro (ADCC reporter, jurkat/CD16a/NFAT-luc) of chimeric antibody 2046-2H1L1 (antibody, human IgG1, kappa, V domains shown, Chimeric (murine V, human IgG1/kappa); also called 2046-2ix) VH: DVQLQESGPGLVKPSQSLSLTCTVTGYSITSDYAWNWIRHFPGNKLEWMGYITYSGSTVYNPSLKSRISITRDTSKNHFFLQLNSVTTEDTATYYCARWLLQIYYAMDYWGQGTSVTVSS VL: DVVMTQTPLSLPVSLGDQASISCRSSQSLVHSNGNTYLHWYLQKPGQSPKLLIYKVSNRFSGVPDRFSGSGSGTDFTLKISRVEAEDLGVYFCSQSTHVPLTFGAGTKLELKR
22.2

Same read-out for chimeric antibody 2046-18H1L1 (antibody, human IgG1, kappa, V domains shown, Chimeric, human IgG1/kappa; also called 2046-18ix) VH: DVQLQESGPGLVKPSQSLSLTCTVTGYSITSDYAWNWIRQFPGNKLEWMGYISYSGITIYNPSLKSRISITRDTSKNQFFLQLNSVTTEDTATYYCARWLLQIYYAMDYWGQGTSVTVSS VL: DVVMTQTPLSLPVSLGDQASISCSSSQSLVHSNGNTYLHWYLHKPGQSPKLLIYKVSNRFSGVPDRFSGSGSGTDFTLKISRVEAEDLGVYFCSQSTHVPLTFGAGTKLELKR ?
31.7

Can you check chimeric antibody 2047-3H8L2 (antibody, human IgG1, kappa, V domains shown, Chimeric, human IgG1/kappa; also called 2047-3ix) VH: QVQLKQSGAELVKPGASVKMSCKTSGYTFTDYVISWVKQRTGQGLEWIGEIYPGSGSTYYNEKFKGKATLTADISSNTAYMQLSSLTSEDSAVYFCASINFDYWGHGTTLTVSS VL: DIVMTQSPATLSVTPGDRVSLSCRASQSISDYLHWYQQKSHESPRLLIKYASQSISGIPSRFSGSGSGSDFTLSINSVEPEDVGVYYCQNGHSFPYTFGGGTKLEIKR next?
857

Then this binder: chimeric antibody 2046-111H2L1 (antibody, human IgG1, kappa, V domains shown, Chimeric, human IgG1/kappa) VH: DVQLQESGPGLVKPSQSLSLTCTVTGHSITSDYAWNWIRQFPGNKLEWMGYISYSGSTIYNPSLKSRISITRDTSKNQFFLQLNSVTTEDTATYYCARWLLQNYYAMDYWGQGTSVTVSS VL: DVVMTQTPLSLPVSLGDQASISCRSSQSLVHSNGNTYLHWYLRKPGQSPKLLIYKVSNRFSGVPDRFSGSGSGTDFTLKISRVEAEDLGVYFCSQSTHVPLTFGAGTKLELKR
89.8

// same read-out, input: chimeric antibody 2047-10H1L2 (antibody, human IgG1, kappa, V domains shown, Chimeric, human IgG1/kappa; also called 2047-10ix) VH: QVQLQQSGPELVRPGVSVKISCKGSGYTFTDYAMHWVKQSHAKSLEWIGVISTYNGNTNYNQKFKGKATMTVDKSSSTAYMELARLTSEDSAIYYCARSYGNYPFDYWGQGTTLTVSS VL: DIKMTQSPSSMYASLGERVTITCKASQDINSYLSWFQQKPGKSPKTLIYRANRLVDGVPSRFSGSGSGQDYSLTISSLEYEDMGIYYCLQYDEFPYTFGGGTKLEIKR
41.4

Request: chimeric antibody 2046-24H2L1 (antibody, human IgG1, kappa, V domains shown, Chimeric, human IgG1/kappa; also called 2046-24ix) VH: DVQLQESGPGLVKPSQSLSLTCTVTGYSITSDYAWNWIRQFPGNKLEWMGYISYGGTTIYNPSLKSRISITRDTSKNQFFLQLNSVTTEDTATYYCARWLLQNYYAMDYWGQGTSVTVSS VL: DVVMTQTPLSLPVSLGDQASISCRSSQSLVHSNGNTYLHWYLQKPGQSPKVLIYKVSNRFSGVPDRFSGSGSGTDFTLKISRVEAEDLGVYFCSQNTHVPLTFGAGTKLELKR
26.5
